Data credit: patent US20220259593A1

# Tested on: K562 CRISPRi cells
# Assay Notes: Constant region variant library pooled growth screen, K562
# Assay type: cell-based, human
# Assay Conditions: sgRNA constant region variants; activity relative to the un-modified constant region cr995
Listed molecules paired with reported Mean relative activity
Measurement Name: Mean relative activity

INSERT INTO results (molecule, measured_number) VALUES
  ('cr284 (nucleic acid, listed as DNA, chemistry not fully specified) guide: GTTTAAGAGCTAAGCTGGAAACAGCATAGCAAGTTTAAATAAGGCTAGTCCGTTATCAACTTGAGAAAGTGGCACCAAGTTGGTGCT', 0.9497),
  ('cr983 (nucleic acid, listed as DNA, chemistry not fully specified) guide: GTTTAAGAGCTAAGCTGGAAACAGCATAGCAAGTTTAAATAAGGCTAGTCCGTTATCAACTTGAAAAAGTGGTACCGAGTCGGTGCT', 0.9491),
  ('cr576 (nucleic acid, listed as DNA, chemistry not fully specified) guide: GTTTAAGAGCTAAGCCGGAAACAGCATAGCAAGTTTAAATAAGGCTAGTCCGTTATCAACTTGAAAAAGTGGCACCGAGTCGGTGCT', 0.935),
  ('cr226 (nucleic acid, listed as DNA, chemistry not fully specified) guide: GTTTAAGAGCTAAGCTGGAAACAGCATAGCAAGTTTAAATAAGGCTAGTCCGTTATCAACTTGAAAAAGTGGCCACGAGTCGTGGCT', 0.9795);
